target: Peptide 1: Biotin-…-[Tyr(PC)]-acid; assay: scFv ELISA
Sequence (peptide, as listed by the source): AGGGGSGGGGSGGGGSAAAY
Here the recorded OD450 is given for each entry.
Entry rule: numbers only, all in OD450.

PcOxP_DB02_E09 (scFv, V domains shown, scFv in periplasmic extract) VH: EVQLLESGGGLVQPGGSLRLSCAASGFTFSDYYMEWVRQAPGKGLEWVAASRWKANDYTTEYADSVKGRFTISRDNSKNTLYLQMNSLRAEDTAVYYCARDYYGSSYWYFDVWGQGTLVTVSS VL: DIVMTQSPDSLAVSLGERATINCTASESLYSSKHKVHYLAWYQQKPGQPPKLLIYGASTRYSGVPDRFSGSGSGTDFTLTISSLQAEDVAVYYCAQFYTYPLTFGGGTKVEIK | 0.56

Q) Identify measured OD450 corresponding to PcOxP_DB01_D12 (scFv, V domains shown, scFv in periplasmic extract) VH: EVQLLESGGGLVQPGGSLRLSCAASGFTFSDYYMEWVRQAPGKGLEWVAASRNKYNDYTTEYADSVKGRFTISRDNSKNTLYLQMNSLRAEDTAVYYCARDYYGSSYWYFDVWGQGTLVTVSS VL: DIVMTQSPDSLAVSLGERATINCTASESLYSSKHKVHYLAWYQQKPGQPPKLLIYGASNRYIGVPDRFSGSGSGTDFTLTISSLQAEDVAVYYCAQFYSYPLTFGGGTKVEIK
A) 0.85

Q) Identify the reported OD450 for the following entry. PcOxP_DB02_A10 (scFv, V domains shown, scFv in periplasmic extract) VH: EVQLLESGGGLVQPGGSLRLSCAASGFAFSDFYMEWVRQAPGKGLEWVAASRNKANDYTTEYADSVKGRFTISRDNSKNTLYLQMNSLRAEDTAVYYCARDYYGSSYWYFDVWGQGTLVTVSS VL: DIQMTQSPSSLSASVGDRVTITCTASESLYSSKHKVHYLAWYQQKPGKAPKLLIYGASNRQSGVPSRFSGSGSGTDFTLTISSLQPEDFATYYCAQFYAYPLTFGGGTKVEIK
A) 0.42
